Test system: panel of 4 panelists
Test: Organoleptic test of the compounds against sucrose and Pterocaryoside A
Format: in vivo
Design: key: 3: sweeter than the control solution; 2: sweetness comparable with the control solution; 1: less sweet than the control solution but still sweet
Conditions: 0.4 mg/ml (400 ppm) in non-carbonated mineral water vs sucrose 20 mg/ml; panel of 4 panelists
readout.label: sweetness compared to sucrose
Just the number, please.

As a guide, the following entries are already answered.
compound	sweetness compared to sucrose
C=C(C)C(O)CCC(C)(O)C1CCC2(C)C1C(OC1OC(COC(C)=O)C(O)C1O)CC1C(C)(CCC(=O)O)C(C(=C)C)CCC12C (centres unmarked)	1
C=C(C)C(O)C(O)CC(C)(O)C1CCC2(C)C1C(O[C@@H]1OCC(O)[C@H](O)[C@H]1O)CC1C(C)(CCC(=O)O)C(C(=C)C)CCC12C (stereo in doubt)	3
C=C(C)C1CCC2(C)C(CC(O[C@@H]3OC[C@H](O)[C@H](O)[C@H]3O)C3C(C(C)=O)CCC32C)C1(C)CCC(=O)O (some centres unmarked)	3
C=C(C)C1CCC2(C)C(CC(O[C@@H]3OC[C@H](O)[C@H](O)[C@H]3O)C3C(C4(C)CCC(C(C)(C)O)O4)CCC32C)C1(C)CCC(=O)O (some centres unmarked)	3

QUERY: Lookup: sweetness compared to sucrose / panel of 4 panelists / C=C(C)C(O)C(O)CC(C)(O)C1CCC2(C)C1C(O[C@@H]1O[C@H](C)[C@@H](O)[C@H](O)[C@H]1O)CC1C(C)(CCC(=O)O)C(C(=C)C)CCC12C (some centres unmarked)
RESULT: 3

// provenance: patent US20180354980A1
